tested on: CN0375-F725-PDC KRAS spheroid viability; assay: Anticancer human tumor CN0375-F725-PDC patient-derived colon carcinoma cell line growth inhibition [KRAS2]; settings: second compound 0.316 µM; first compound 0.1 µM; hits give low values; spheroids with HUVEC and MSC
With a cut-off of 80%, any viability, T/C strictly below it is called 1; any viability, T/C meeting it or above is called 0.

Challenge: # TODO verify viability, T/C < 80% strictly for this molecule: CCNC(=O)CC1N=C(c2ccc(Cl)cc2)c2cc(OC)ccc2-n2c(C)nnc21 (centres undefined) + COc1cc2nc(C)nc(NC(C)c3cc(N)cc(C(F)(F)F)c3)c2cc1OC1CCOC1
Response given: 0

Challenge: # TODO verify viability, T/C < 80% strictly for this molecule: COC(=O)c1ccc2c(C(=Nc3ccc(N(C)C(=O)CN4CCN(C)CC4)cc3)c3ccccc3)c(O)[nH]c2c1 + CC1OCC2(CCN(c3cnc(Sc4ccnc(N)c4Cl)c(N)n3)CC2)C1N
Response given: 0

Challenge: # TODO verify viability, T/C < 80% strictly for this molecule: Cn1ncnc1[C@H]1c2n[nH]c(=O)c3cc(F)cc(c23)N[C@@H]1c1ccc(F)cc1 + CNCc1ccccc1-c1csc(C(C)Nc2nc(C)nc3cc(OC)c(OC)cc23)c1
Response given: 0

Challenge: # TODO verify viability, T/C < 80% strictly for this molecule: Cn1ncnc1[C@H]1c2n[nH]c(=O)c3cc(F)cc(c23)N[C@@H]1c1ccc(F)cc1 + C=CC(=O)N1CCN(c2nc(OCC3CCCN3C)nc3c2CCN(c2cccc4cccc(C)c24)C3)CC1CC#N
Response given: 0

Challenge: # TODO verify viability, T/C < 80% strictly for this molecule: CC(C)NCC(C(=O)N1CCN(c2ncnc3c2C(C)CC3O)CC1)c1ccc(Cl)cc1 (centres undefined) + C=CC(=O)N1CCN(c2nc(OCC3CCCN3C)nc3c2CCN(c2cccc4cccc(C)c24)C3)CC1CC#N
Response given: 0

Challenge: # TODO verify viability, T/C < 80% strictly for this molecule: CC(C)NCC(C(=O)N1CCN(c2ncnc3c2C(C)CC3O)CC1)c1ccc(Cl)cc1 (centres undefined) + CNCc1ccccc1-c1csc(C(C)Nc2nc(C)nc3cc(OC)c(OC)cc23)c1
Response given: 0

Challenge: # TODO verify viability, T/C < 80% strictly for this molecule: CC(C)n1nc(-c2ccc3oc(N)nc3c2)c2c(N)ncnc21 + COc1cc2nc(C)nc(NC(C)c3cc(N)cc(C(F)(F)F)c3)c2cc1OC1CCOC1
Response given: 1

Challenge: # TODO verify viability, T/C < 80% strictly for this molecule: Cn1nccc1Nc1nccc(-c2cc3c(s2)C(C)(C)N(CCN2CCOCC2)C3=O)n1 + C=CC(=O)N1CCN(c2nc(=O)n(-c3c(C)ccnc3C(C)C)c3nc(-c4c(O)cccc4F)c(F)cc23)C(C)C1
Response given: 0

----------
Collected viability, T/C values appear next to each entry.
test system: CN0375-F725-PDC KRAS spheroid viability; assay: Anticancer human tumor CN0375-F725-PDC cell line growth inhibition [KRAS2]; details: second compound 0.316 µM; first compound 1 µM; hits give low values; spheroids with HUVEC and MSC;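 note: spheroids exposed to agents for 7 days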
Give the value in % but do not write % after it.

Consider the worked cases shown below.
- O=C(c1cc(Cc2n[nH]c(=O)c3ccccc23)ccc1F)N1CCN(C(=O)C2CC2)CC1 + CC1OCC2(CCN(c3cnc(Sc4ccnc(N)c4Cl)c(N)n3)CC2)C1N: 89.6
- CC1(C)CCC(CN2CCN(c3ccc(C(=O)NS(=O)(=O)c4ccc(NCC5CCOCC5)c([N+](=O)[O-])c4)c(Oc4cnc5[nH]ccc5c4)c3)CC2)=C(c2ccc(Cl)cc2)C1 + CNCc1ccccc1-c1csc(C(C)Nc2nc(C)nc3cc(OC)c(OC)cc23)c1: 89.5

For the next question, use this compound.
Challenge: Note viability, T/C for the compound shown: CCN1CCN(Cc2ccc(Nc3ncc(F)c(-c4cc(F)c5nc(C)n(C(C)C)c5c4)n3)nc2)CC1 + C=CC(=O)N1CCN(c2nc(OCC3CCCN3C)nc3c2CCN(c2cccc4cccc(C)c24)C3)CC1CC#N
Response given: 91.5

----------
test system: CN0375-F725-PDC KRAS spheroid viability; experiment: Anticancer human tumor CN0375-F725-PDC cell line growth inhibition [KRAS2]; details: second compound 0.1 µM; first compound 0.316 µM; hits give low values; spheroids with HUVEC and MSC;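 note: spheroids exposed to agents for 7 days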
Assay endpoint: viability, T/C (%)
Give the value in % but do not write % after it.

Consider the worked cases shown below.
- CCN1CCN(Cc2ccc(Nc3ncc(F)c(-c4cc(F)c5nc(C)n(C(C)C)c5c4)n3)nc2)CC1 + COc1cc2nc(C)nc(NC(C)c3cc(N)cc(C(F)(F)F)c3)c2cc1OC1CCOC1: 90.7
- COC(=O)c1ccc2c(C(=Nc3ccc(N(C)C(=O)CN4CCN(C)CC4)cc3)c3ccccc3)c(O)[nH]c2c1 + COc1cc2nc(C)nc(NC(C)c3cc(N)cc(C(F)(F)F)c3)c2cc1OC1CCOC1: 91.3

For the next question, use this compound.
Challenge: Note viability, T/C for the compound shown: CC(C)NCC(C(=O)N1CCN(c2ncnc3c2C(C)CC3O)CC1)c1ccc(Cl)cc1 (stereo not drawn) + C=CC(=O)N1CCN(c2nc(=O)n(-c3c(C)ccnc3C(C)C)c3nc(-c4c(O)cccc4F)c(F)cc23)C(C)C1
Response given: 91.4

----------
system: CN0375-F725-PDC KRAS spheroid viability; experiment: Anticancer human tumor CN0375-F725-PDC cell line growth inhibition [KRAS2]; conditions: second compound 0.316 µM; first compound 0.1 µM; hits give low values; spheroids with HUVEC and MSC;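 note: spheroids exposed to agents for 7 days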
Assay endpoint: viability, T/C

Consider the worked cases shown below.
* CCN1CCN(Cc2ccc(Nc3ncc(F)c(-c4cc(F)c5nc(C)n(C(C)C)c5c4)n3)nc2)CC1 + COc1cc2nc(C)nc(NC(C)c3cc(N)cc(C(F)(F)F)c3)c2cc1OC1CCOC1 | 82%
* CCNC(=O)CC1N=C(c2ccc(Cl)cc2)c2cc(OC)ccc2-n2c(C)nnc21 (stereo unspecified) + C=CC(=O)N1CCN(c2nc(OCC3CCCN3C)nc3c2CCN(c2cccc4cccc(C)c24)C3)CC1CC#N | 88.6%
* COC(=O)c1ccc2c(C(=Nc3ccc(N(C)C(=O)CN4CCN(C)CC4)cc3)c3ccccc3)c(O)[nH]c2c1 + C=CC(=O)N1CCN(c2nc(=O)n(-c3c(C)ccnc3C(C)C)c3nc(-c4c(O)cccc4F)c(F)cc23)C(C)C1 | 103%
* CC1COCCN1c1cc(-c2ccnn2C)c2ccnc(-c3ccn[nH]3)c2n1 (stereo unspecified) + C=CC(=O)N1CCN(c2nc(=O)n(-c3c(C)ccnc3C(C)C)c3nc(-c4c(O)cccc4F)c(F)cc23)C(C)C1 | 80%
* CC(C)n1nc(-c2ccc3oc(N)nc3c2)c2c(N)ncnc21 + CNCc1ccccc1-c1csc(C(C)Nc2nc(C)nc3cc(OC)c(OC)cc23)c1 | 43.2%

Challenge: Note viability, T/C for the compound shown: Cn1ncnc1[C@H]1c2n[nH]c(=O)c3cc(F)cc(c23)N[C@@H]1c1ccc(F)cc1 + CC1OCC2(CCN(c3cnc(Sc4ccnc(N)c4Cl)c(N)n3)CC2)C1N
Response given: 81%
